measured-metric: melting point

Cc1cc(COc2ncc(Cl)nc2NS(=O)(=O)c2ccc(Cl)s2)no1; 141 to 142 °C
COc1nccnc1NS(=O)(=O)c1ccc(Cl)s1; 119 to 120 °C
Cc1cnc(NS(=O)(=O)c2ccc(Cl)s2)c(OCc2cccnn2)n1; 179 to 181 °C
O=S(=O)(Nc1nc(Cl)cnc1OCc1ccco1)c1ccc(Cl)s1; 130 to 133 °C
COc1nc(SCCN)cnc1NS(=O)(=O)c1ccc(Cl)s1; 192 to 194 °C
O=S(=O)(Nc1nc(Cl)cnc1OCc1ccccn1)c1ccc(Cl)s1; 171 to 172 °C
Cc1cnc(NS(=O)(=O)c2ccc(Cl)s2)c(OCc2cccnc2)n1; 204 to 205 °C
O=S(=O)(Nc1nccnc1OCc1ccccn1)c1ccc(Cl)s1; 109 to 110 °C
COc1nc(C#N)cnc1NS(=O)(=O)c1ccc(Cl)s1; 218 to 219 °C
COc1nc(C)c(C)nc1NS(=O)(=O)c1ccc(Cl)s1; 95 to 96 °C
